B1: WEE1 (parent)
chain: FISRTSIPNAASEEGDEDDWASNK

# Variants of: B1
# protocol: protein stability index of a GFP-peptide fusion (GPS, HEK-293T) (PSI 1-6); higher = more stable;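 also: lentivirally expressed fusions sorted by FACS into six bins by GFP to DsRed ratio, PSI derived from sequencing read proportions per bin multiplied by bin number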
# condition_context: c terminus: a fixed tail appended
Reported protein stability index values for a set of variants
Reply: number alone, nothing else.

Illustrative cases are given below, each with its answer.
R4S :: 4.2
S22A :: 4.15
S6R :: 3.22

Query variant follows.
Can you share its protein stability index? I mean this variant: A10Q
4.16
